Reference for the values: the OligoGym collection

// target mRNA inhibition lookup, one value per entry
- measurementTarget: APOL1
- details: ASO, A431, 0.25 µM
After the bases stand the sugars from the 5' end (letter, count) and the backbone: PS all phosphorothioate, else s phosphorothioate and o phosphodiester by linkage. Methylation of C is not given here. e = 2'-O-(2-methoxyethyl) (MOE); k = constrained ethyl (cEt); d = 2'-deoxy (DNA)
quantityName: target mRNA inhibition (%)

>>> measured("CTGTTCTAACTCTTGG (sugars k4 d9 k3, PS)")
79
>>> measured("GTTATGAAATTATTGG (sugars kkkddddkekeddddd, PS)")
75
>>> measured("TCCGTCAATATATTCT (sugars kkddddekekeddddd, PS)")
86
>>> measured("TCCTTGCTGCACTGCC (sugars k4 d9 k3, PS)")
88
>>> measured("CGTCAATATATTCTTT (sugars kkkddddkdkdkdddd, PS)")
84
>>> measured("TATTTCTTGATGTGGT (sugars kkkddddkekekdddd, PS)")
80
>>> measured("GCAAGGTTGTCCAGAG (sugars k4 d9 k3, PS)")
61
>>> measured("TGGTTCAAAAGCAGCA (sugars k2 d4 e3 k2 d5, PS)")
85
